The reported measurements were obtained from patent US20230414628A1.

Tested on: RAG01 (derived from fibroblasts of a patient diagnosed with SSMD) fibroblasts
Assay: CellTiter-Glo concentration response in RAG01 fibroblasts
Format: cell-based, human
Settings: Homo sapiens, Fibroblast; RAG01 cell line; 72 hours incubation; CellTiter-Glo; percentage effect normalized to vehicle control; 10-point CRC from 10 μM; read-out: EC50
// classify: if (EC50 < 1000 nM) T else F

# count of solved cases: 8
compound	label-value
Cc1ccc(NC(=O)c2ccc(CN3CCN(C)CC3)cc2)cc1Nc1nc(-c2cccnc2)cs1 [compound 82, Masitinib (AB1010)]	T
CC1(S(=O)(=O)O)CC(=O)c2ccccc2C1=O (stereo not drawn) [compound 13]	F
CN1CCN(Cc2ccc(-c3cnc4[nH]cc(-c5ccc6[nH]ccc6c5)c4c3)cc2)CC1 [compound 75, URMC-099]	T
CCc1cc2c(cc1CC)CC(NC[C@H](O)c1ccc(O)c3[nH]c(=O)ccc13)C2 [compound 29, indacaterol]	F
CCCN(C/C=C/I)C1CCc2cccc(O)c2C1 (stereo not drawn) [compound 52, 8-hydroxy-PIPAT]	F
CCOc1cc(N2CCC(O)CC2)ccc1Nc1ncc2c(n1)N(C1CCCC1)CCC(=O)N2C [compound 80, Mps1-IN-1]	T
Oc1ccc(/C=C/c2cc(O)cc(O)c2)cc1 [compound 22, resveratrol]	F
COC(=O)c1sccc1S(=O)(=O)Nc1ccc(Nc2ccccc2)cc1OC [compound 93, GSK-0660]	T

Ask | Is 1000 nM strictly greater than the compound's reported EC50? compound: CC1=C(C(=O)OC(C)C)C(c2cccc([N+](=O)[O-])c2)C(C(=O)OC2CN(C(c3ccccc3)c3ccccc3)C2)=C(N)N1 (stereo not drawn) [compound 1, azelnidipine]
Reply | F

Ask | Is 1000 nM strictly greater than the compound's reported EC50? compound: Brc1ccc(NC2C3CC4CC(C3)CC2C4)cc1 (stereo not drawn) [compound 60, bromantane]
Reply | T

Ask | Is 1000 nM strictly greater than the compound's reported EC50? compound: CC1(C)CNc2cc(NC(=O)c3cccnc3NCc3ccncc3)ccc21 [compound 86, Motesanib]
Reply | F

Ask | Is 1000 nM strictly greater than the compound's reported EC50? compound: Cc1nn(C)c2nc(NNC(=O)Nc3cc(Cl)nc(Cl)c3)cc(C(C)C)c12 [compound 106, JTE-013]
Reply | F

Ask | Is 1000 nM strictly greater than the compound's reported EC50? compound: CCCN(CCc1cccs1)[C@H]1CCc2c(O)cccc2C1 [compound 41, rotigotine]
Reply | F

Ask | Is 1000 nM strictly greater than the compound's reported EC50? compound: O=C(c1ccc(OCCN2CCCCC2)cc1)c1c(-c2ccc(O)cc2)sc2cc(O)ccc12 [compound 5, raloxifene]
Reply | T

Ask | Is 1000 nM strictly greater than the compound's reported EC50? compound: COc1ccc(-c2nc(-c3ccc(-c4cccc(Cl)c4)o3)[nH]c2-c2ccc(OC)cc2)cc1 [compound 96, neurodazine]
Reply | T

Ask | Is 1000 nM strictly greater than the compound's reported EC50? compound: Cc1c(-c2ccc(O)cc2)n(Cc2ccc(OCCN3CCCCCC3)cc2)c2ccc(O)cc12 [compound 3, bazedoxifene]
Reply | T

Ask | Is 1000 nM strictly greater than the compound's reported EC50? compound: O=C1Nc2cc(Br)ccc2/C1=C1/Nc2ccccc2/C1=N\O [compound 79, GSK-3-inhibitor-IX]
Reply | T

Ask | Is 1000 nM strictly greater than the compound's reported EC50? compound: C=CC(=O)Nc1cccc(Nc2nc(Nc3ccc(NC4CN(CCF)C4)cc3OC)ncc2C(F)(F)F)c1 [compound 68, CNX-2006]
Reply | T

Ask | Is 1000 nM strictly greater than the compound's reported EC50? compound: Cc1c(NC(=O)OC[C@@H]2COCCN2)cn2ncnc(Nc3ccc4c(cnn4Cc4cccc(F)c4)c3)c12 [compound 88, BMS-599626]
Reply | F

Ask | Is 1000 nM strictly greater than the compound's reported EC50? compound: CCC[C@H](N[C@H]1CCc2cc(F)cc(F)c2C1)C(=O)Nc1cn(C(C)(C)CNCC(C)(C)C)cn1 [compound 110, Nirogacestat]
Reply | F

Ask | Is 1000 nM strictly greater than the compound's reported EC50? compound: N#Cc1ccc(-c2csc(NN=C3CCCC3)n2)cc1 [compound 103, remodelin]
Reply | F

----------
// reported EC50 per item
Test system: RAG01 (derived from fibroblasts of a patient diagnosed with SSMD) fibroblasts
Experiment: CellTiter-Glo concentration response in RAG01 fibroblasts
Assay type: cell-based, human
Settings: Homo sapiens, Fibroblast; RAG01 cell line; 72 hours incubation; CellTiter-Glo; percentage effect normalized to vehicle control; 10-point CRC from 10 μM; read-out: EC50
Hi! Could you send only the number? It should be in nM, unit omitted.

// known answers, use as guide
molecule	EC50, nM
COc1ccc(Nc2ccn(-c3ccccc3)n2)cc1	53
COC1=C(OC)C(=O)C(CCCCCCCCCCO)=C(C)C1=O	1600
COc1cc(N2CCC(N3CCN(C)CC3)CC2)ccc1Nc1ncc(Cl)c(Nc2ccccc2S(=O)(=O)C(C)C)n1	480
Cc1cc(N2CCOCC2)ccc1Nc1nc(NC2CCCCC2)c2nc[nH]c2n1	688
C=CCc1ccc(O)c(-c2ccc(O)c(CC=C)c2)c1	1210
C=C(C)CN1CC[C@]23c4c5ccc(O)c4OC2c2[nH]c4ccccc4c2C[C@@]3(O)[C@H]1C5 (stereo partly shown) [compound 56, SDM25N]	1410
Cc1[nH]c2ccc(Cl)cc2c1C1=CCNCC1	1350
CCCCCS(=O)(=O)CCCCCCCCCCn1c(-c2ccc(O)cc2)c(C)c2cc(O)ccc21	1630
Oc1ccc2c3c1O[C@H]1c4oc5ccccc5c4C[C@@]4(O)[C@@H](C2)N(CC2CC2)CC[C@]314	1320
COc1ccc2cccc(N3CCN(CCNC(=O)c4ccc(F)cc4)CC3)c2c1	928

Ask | Under RAG01 (derived from fibroblasts of a patient diagnosed with SSMD) fibroblasts: EC50 value of OC(CNc1ccccc1)Cn1c2ccc(Br)cc2c2cc(Br)ccc21 (stereo not shown) ?
Reply | 652

Ask | Under RAG01 (derived from fibroblasts of a patient diagnosed with SSMD) fibroblasts: EC50 value of COc1ccc2c(c1)CN(C)CC2c1ccc(Cl)c(Cl)c1 (stereo not shown) ?
Reply | 3850

Ask | Under RAG01 (derived from fibroblasts of a patient diagnosed with SSMD) fibroblasts: EC50 value of `C#C[C@]1(O)CC[C@H]2[C@@H]3CCc4cc(O)ccc4[C@H]3CC[C@@]21C` ?
Reply | 4480

----------
Tested on: RAG01 (derived from fibroblasts of a patient diagnosed with SSMD) fibroblasts
Test: CellTiter-Glo concentration response in RAG01 fibroblasts
Format: cell-based, human
Details: Homo sapiens, Fibroblast; RAG01 cell line; 72 hours incubation; CellTiter-Glo; percentage effect normalized to vehicle control; 10-point CRC from 10 μM; read-out: EC50
// reported pEC50 per item
Quick note: pEC50 values are minus log10 of concentrations in mol/L.

// known answers, use as guide
compound	system-tested	meas-value
CCN1CCC(n2cc(CNc3cc(Cl)c4ncc(C#N)c(Nc5ccc(F)c(Cl)c5)c4c3)nn2)CC1 [compound 72, Cot inhibitor-2]	RAG01 (derived from fibroblasts of a patient diagnosed with SSMD) fibroblasts	7.11
COc1ccccc1OCCNCC(O)COc1cccc2[nH]c3ccccc3c12 (stereo not shown) [compound 28, carvedilol]	RAG01 (derived from fibroblasts of a patient diagnosed with SSMD) fibroblasts	5.31
Clc1ccc2c(c1)N=C(N1CCNCC1)c1ccccc1N2 [compound 34, desmethylclozapine]	RAG01 (derived from fibroblasts of a patient diagnosed with SSMD) fibroblasts	5.57
O=c1c(O)c(-c2ccc(O)cc2)oc2cc(O)cc(O)c12 [compound 16, kaempferol]	RAG01 (derived from fibroblasts of a patient diagnosed with SSMD) fibroblasts	5.49
CCNCc1cc(C(C)(C)C)c(O)c(C(C)(C)C)c1 [compound 17, LY 231617]	RAG01 (derived from fibroblasts of a patient diagnosed with SSMD) fibroblasts	5.13
c1ccc2c(Oc3nc(Nc4ccc(N5CCOCC5)cc4)c4ncn(C5CCCCC5)c4n3)cccc2c1 [compound 97, Purmorphamine]	RAG01 (derived from fibroblasts of a patient diagnosed with SSMD) fibroblasts	5.96

Now examine the next entry.
Ask | Request the reported pEC50 associated with Oc1cc2c(cc1O)C(c1ccccc1)CNCC2 (stereo not shown) [compound 38, SKF-38,393]
Reply | 5.37

----------
// reported EC50 per item
Tested on: RAG01 (derived from fibroblasts of a patient diagnosed with SSMD) fibroblasts
Assay: CellTiter-Glo concentration response in RAG01 fibroblasts
Assay type: cell-based, human
Conditions: Homo sapiens, Fibroblast; RAG01 cell line; 72 hours incubation; CellTiter-Glo; percentage effect normalized to vehicle control; 10-point CRC from 10 μM; read-out: EC50
Hi! Could you send only the number? It should be in nM, unit omitted.

// known answers, use as guide
molecule	value-unit	EC50
O=C1c2ccccc2-n2c1nc1ccccc1c2=O	nM	180
NC(=O)c1nc(Nc2ccccc2)sc1NC(=O)C1CCCCC1	nM	1240
C[C@@H]1CC(=O)c2c(ccc3c2C(=O)c2cccc(O)c2C3=O)C1	nM	1150
CC(=O)Oc1c(C)cc(OCC(O)CNC(C)C)c(C)c1C (centres unmarked)	nM	403

Ask | Request the reported EC50 associated with `CC#C[C@]1(O)CC[C@H]2[C@@H]3CCC4=CC(=O)CCC4=C3[C@@H](c3ccc(N(C)C)cc3)C[C@@]21C`
Reply | 2280
